Assay: NCI Yeast Anticancer Drug Screen. Data for the mec2-1 strain (AID 157)
Conditions: S. cerevisiae mec2-1 strain, at 33.0 µM, hits give high values
About 79,000 compounds went through this panel and 15% of them were active in at least one assay; those are over-represented in the sample as a whole.
result-type: growth inhibition (%)

compound: CC1CC(Br)C(=O)O1 (stereo unspecified)
measurement-units: %
reported-value: 95

compound: CN(N=O)C(=O)NNC(=O)N(C)N=O
measurement-units: %
reported-value: 61

compound: COc1cccc2c1C(=O)c1c(O)c3c(c(O)c1C2=O)C[C@@](O)(/C(C)=N\O)C[C@@H]3OC1CC(N)C(O)C(C)O1 (stereo partly specified)
measurement-units: %
reported-value: 27

compound: O=[N+]([O-])c1cc([As](Br)c2ccc(O)c([N+](=O)[O-])c2)ccc1O
measurement-units: %
reported-value: 100

compound: C[CH2][Sn]1([CH2]C)[O]C2C(O)OC(CO)C(O)C2[O]1 (stereo unspecified)
measurement-units: %
reported-value: 24

compound: Cc1ccc2c(c1N)C(=O)c1ccccc1C2=O
measurement-units: %
reported-value: 11

compound: CC(=O)[O-].O=C([CH-]C(=O)c1ccccc1)c1ccccc1.O=C([CH-]C(=O)c1ccccc1)c1ccccc1.[Sm+3]
measurement-units: %
reported-value: 97

compound: CS(=O)(=O)OCCN(CCOS(C)(=O)=O)c1ccc(C=O)cc1
measurement-units: %
reported-value: 75

compound: OC1CCCC2CCC[N-]C12.OC1CCCC2CCC[N-]C12.[O]=[V][OH] (stereo unspecified)
measurement-units: %
reported-value: 98

compound: CSc1ccccc1[As](C)C
measurement-units: %
reported-value: 99

compound: CC1CCCN(CCc2ccccc2)CC1 (stereo unspecified)
measurement-units: %
reported-value: 15

----------
Test: NCI Yeast Anticancer Drug Screen. Data for the bub3 strain (AID 167)
Conditions: S. cerevisiae bub3 mutant strain, at 33.0 µM, hits give high values
This is part of a sample that, as a whole, favours compounds with a hit. Of some 79,000 tested, about 15% had one in any assay.
Catalogue of growth inhibition readings, one per entry.

compound: COc1cc([C@@H]2c3cc4c(cc3C[C@@H]3COC(=O)C32)OCO4)cc(OC)c1O (some centres not stated)
measurement-units: %
growth inhibition: 50
//
compound: O=[N+]([O-])c1cc([As](Br)c2ccc(O)c([N+](=O)[O-])c2)ccc1O
measurement-units: %
growth inhibition: 98
//
compound: CC1=C(CO)C2=C(C)C3(CC3)[C@@](C)(O)C(=O)C2=C1
measurement-units: %
growth inhibition: -14
//
compound: c1cc2c(cc1C1OC[C@H]3[C@@H](c4ccc5c(c4)OCO5)OC[C@@H]13)OCO2 (some centres not stated)
measurement-units: %
growth inhibition: 46
//
compound: Cc1ccc2c(c1N)C(=O)c1ccccc1C2=O
measurement-units: %
growth inhibition: 37
//
compound: O=C1c2ccccc2C(=O)C(Cl)C1Cl (configuration not stated)
measurement-units: %
growth inhibition: 99
//
compound: c1c(N2CCOCC2)ssc1=[N+]1CCOCC1
measurement-units: %
growth inhibition: -2
//
compound: Nc1nnc(N)n1-n1c(N)nnc1N
measurement-units: %
growth inhibition: 3
//
compound: C=C[C@H]1CN2CC[C@H]1C[C@@H]2[C@@H](O)c1ccnc2ccccc12
measurement-units: %
growth inhibition: 1
//
compound: CCC1(O)C(=O)OCc2c1cc1n(c2=O)Cc2c-1nc1ccccc1c2OC (configuration not stated)
measurement-units: %
growth inhibition: 0
//
compound: O=C(NNC(=O)OCC(Cl)(Cl)Cl)OCC(Cl)(Cl)Cl
measurement-units: %
growth inhibition: -4
//
compound: O=C1NC(=S)NC(=O)C1=Cc1ccc([N+](=O)[O-])o1
measurement-units: %
growth inhibition: -28
//
compound: CCOP(=S)(S)OCC.[Pd]
measurement-units: %
growth inhibition: 90
//
compound: O=[N+]([O-])c1ccc(-n2nc3ccc4c(no[n+]4[O-])c3[n+]2[O-])c([N+](=O)[O-])c1
measurement-units: %
growth inhibition: 8
//
compound: CC[C@@]1(O)C(=O)OCc2c1cc1n(c2=O)Cc2cc3c(NC(=O)CN)cccc3nc2-1
measurement-units: %
growth inhibition: 7
//
compound: CC1CC(C)CC(C)C(O)/C(C#N)=C/C=C/CC(C2CCCC2C(=O)O)OC(=O)CC(O)C(C)C1 (configuration not stated)
measurement-units: %
growth inhibition: 98
//
compound: C[CH2][Sn]([CH2]C)([O]S(C)(=O)=O)[O]S(C)(=O)=O
measurement-units: %
growth inhibition: -27
//
compound: C[N+](C)(C)CC1CCCC(C[N+](C)(C)C)C1=O (configuration not stated)
measurement-units: %
growth inhibition: 44
//
compound: C=CC[N+]12CN3CN(CN(C3)C1)C2
measurement-units: %
growth inhibition: 75
//
compound: O=S(=O)(O)c1ccc(Cl)cc1.[Cd]
measurement-units: %
growth inhibition: 19
//
compound: O=S(=O)(O)/C(=C\c1ccccc1)c1ccccc1 (tested in a mixture with another compound)
measurement-units: %
growth inhibition: 19
//
compound: CCCCCNC(=O)c1c(O)[nH]c(=S)[nH]c1=O
measurement-units: %
growth inhibition: 87

----------
Test: NCI Yeast Anticancer Drug Screen. Data for the bub3 strain (AID 167)
Details: S. cerevisiae bub3 mutant strain, at 11.0 µM, hits give high values
This is part of a sample that, as a whole, favours compounds with a hit. Of some 79,000 tested, about 15% had one in any assay.
Category key, based on recorded growth inhibition: Low = under 20%, Medium = from 20% up to 50%, High = 50% and over

compound: COC(COC(=O)N1CCN(C=O)CC1)C1=C(N2CC2)C(=O)C(C)=C(N2CC2)C1=O (stereo not given)
cat: Low
//
compound: CSC(=Nc1ccccc1)N(c1ccccc1)c1nc(=[N+](C)C)ss1
cat: High
//
compound: BrCC[N+]12CC[N+](CCBr)(CC1)C2
cat: Medium
//
compound: O=C(/C=C(\c1ccccc1)N1CC1)c1ccccc1
cat: Low
//
compound: Cn1cc(NC(=O)c2cc(NC(=O)CN=C(N)N)cn2C)cc1C(=O)NCCC(=N)N
cat: Low
//
compound: C[C@@]12CCC(=O)C=C1CC[C@H]1C2=CC[C@]2(C)C1CC[C@@]2(C)O (stereo not given in full)
cat: Medium
//
compound: COC(=O)C1c2cc3c(c(O)c2C(O)CC1(C)O)C(=O)c1c(O)cc2c(c1C3=O)OC1OC2(C)C(O)C(N(C)C)C1O (stereo not given)
cat: High
//
compound: CCC1(O)C(=O)OCc2c1cc1n(c2=O)Cc2cc3cc(Cl)ccc3nc2-1 (stereo not given)
cat: Medium
//
compound: COC(=O)C1=C(C(=O)OC)C2OC1c1cc3ccccc3cc12
cat: High

----------
Experiment: NCI Yeast Anticancer Drug Screen. Data for the sgs1 strain (AID 173);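 also: 0% = growth of vehicle-only control cultures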
Details: S. cerevisiae sgs1 mutant, at 11.0 µM, hits give high values
Description: Growth inhibition of yeast strains with defined genetic alterations is measured as a screen for potential anti-cancer activity. Selected strains with alterations in DNA damage repair or cell cycle control were exposed to compounds and growth inhibition was measured relative to vehicle treated controls. The strain used in this assay is sgs1
Compounds without any hit were thinned out: in the full panel of roughly 79,000, 15% have a hit.
Entries and their growth inhibition values follow.

molecule: N#CC(C#N)=Cc1ccc(C#N)cc1
measurement-units: %
growth inhibition: -2
//
molecule: Cn1cnc(N)c1C(=N)[Se]
measurement-units: %
growth inhibition: 40
//
molecule: CC1CCCN(CCc2ccccc2)CC1 (configuration not stated)
measurement-units: %
growth inhibition: 16
//
molecule: Cc1cccc(NC(=O)CBr)c1
measurement-units: %
growth inhibition: 99
//
molecule: CCNC(=O)OCC1C2=C(C(=O)C(C)=C(N)C2=O)N2CC3C(N3C)C12OC (configuration not stated)
measurement-units: %
growth inhibition: 29
//
molecule: O=C(O)C1C2c3ccccc3C(c3ccccc32)C1C(=O)O (configuration not stated)
measurement-units: %
growth inhibition: -3
//
molecule: CCOP(=O)(CC(C)P(=O)(OCC)OCC)OCC.C[CH2][Sn]([Cl])([Cl])[CH2]C (configuration not stated)
measurement-units: %
growth inhibition: 14
//
molecule: OCC(O)C(O)CO (configuration not stated) (tested in a mixture with another compound)
measurement-units: %
growth inhibition: 2
//
molecule: NC1=NCC(c2ccc(Cl)cc2)O1 (configuration not stated)
measurement-units: %
growth inhibition: -2
//
molecule: CC1CC(C)CC(C)C(O)/C(C#N)=C/C=C/CC(C2CCCC2C(=O)O)OC(=O)CC(O)C(C)C1 (configuration not stated)
measurement-units: %
growth inhibition: 98
//
molecule: NCCc1ccc(OCc2ccccc2)c(OCc2ccccc2)c1
measurement-units: %
growth inhibition: 51
//
molecule: N#Cc1cc(N(CCCl)CCCl)c([N+](=O)[O-])cc1[N+](=O)[O-]
measurement-units: %
growth inhibition: 44
//
molecule: CC(C)(C)c1cc([N+](=O)[O-])cc([N+](=O)[O-])c1O
measurement-units: %
growth inhibition: 15
//
molecule: Oc1ccc2nc3ccccc3nc2c1
measurement-units: %
growth inhibition: 18
//
molecule: Nc1ccccc1C(=O)OCCc1ccccc1
measurement-units: %
growth inhibition: -32
//
molecule: CS(=O)(=O)OCCN(CCOS(C)(=O)=O)c1ccc(C=O)cc1
measurement-units: %
growth inhibition: 58
//
molecule: Cc1c([N+](=O)[O-])oc2ccc3ccccc3c12
measurement-units: %
growth inhibition: 78
//
molecule: S=C1NC2(CCCCC2)NC12CCCCC2
measurement-units: %
growth inhibition: 2
//
molecule: c1ccc(N=c2nc(N3CCOCC3)ss2)cc1
measurement-units: %
growth inhibition: 87
//
molecule: O=C(Nc1cc(Cl)ccc1Cl)C(Cl)(Cl)Cl
measurement-units: %
growth inhibition: 7
//
molecule: CC12CCC(C1)C(C)(C)C2OC(=O)c1ccccc1N (configuration not stated)
measurement-units: %
growth inhibition: -24
//
molecule: Cn1cc(NC(=O)c2cc(NC(=O)CN=C(N)N)cn2C)cc1C(=O)NCCC(=N)N
measurement-units: %
growth inhibition: 17
